SYSTEM_UNDER_TEST: mouse kappa opioid receptor (mKOR) (Mus musculus, UniProt P33534)
Construct: Stimulation of Endogenous Mouse Kappa-Opioid Receptor in R1.G1 Cells
Sequence (P33534 whole entry): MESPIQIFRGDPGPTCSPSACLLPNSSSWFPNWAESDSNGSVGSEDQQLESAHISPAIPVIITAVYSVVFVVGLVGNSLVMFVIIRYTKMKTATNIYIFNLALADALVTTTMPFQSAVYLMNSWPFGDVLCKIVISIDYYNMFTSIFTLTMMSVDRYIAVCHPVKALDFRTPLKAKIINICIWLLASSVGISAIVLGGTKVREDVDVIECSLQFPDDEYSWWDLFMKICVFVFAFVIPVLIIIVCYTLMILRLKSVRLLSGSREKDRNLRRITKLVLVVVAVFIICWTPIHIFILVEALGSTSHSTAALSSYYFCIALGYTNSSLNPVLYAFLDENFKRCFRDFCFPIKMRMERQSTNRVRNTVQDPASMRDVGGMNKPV
ASSAY_COMMENT: cell-based
Square brackets hold non-standard residues; d marks the D form. Peptide text beside a SMILES is read from it. * marks the point of attachment. Homopiperazine(4-amidino) = N=C(N)N1CCCN(*)CC1; d(hArg) = N=C(N)NCCCC[C@@H](N)C(=O)O
Field: pEC50. Provide a value for each of the molecules that follow.
Numbers only, as −log10 of the molar value.

See these solved cases before continuing.
CC(C)C[C@@H](NC(=O)[C@@H](Cc1ccccc1)NC(=O)[C@H](N)Cc1ccccc1)C(=O)N[C@H](CCCN)C(=O)N1CCCN(C(=N)N)CC1; 10.52
CC(C)C[C@@H](N)C(=O)N[C@H](CCCN)C(=O)N[C@H](CCCCNC(=O)[C@@H](CCCN)NC(=O)[C@@H](CC(C)C)NC(=O)[C@@H](Cc1ccccc1)NC(=O)[C@H](N)Cc1ccccc1)C(=O)O; 10.30
Cc1nnc(C)n1C1CCN(C(=O)[C@@H](CCCCN)NC(=O)[C@@H](CC(C)C)NC(=O)[C@@H](Cc2ccccc2)NC(=O)[C@H](N)Cc2ccccc2)CC1; 10.67
CC(C)C[C@@H](NC(=O)[C@@H](Cc1ccccc1)NC(=O)[C@H](N)Cc1ccccc1)C(=O)N[C@H](CCCCN)C(=O)N1CCC(N2CCC[C@H]2C(=O)O)CC1; 10.12
CC(C)C[C@@H](NC(=O)[C@@H](Cc1ccccc1)NC(=O)[C@H](N)Cc1ccccc1)C(=O)N[C@H](CCCCN)C(=O)NCC1OCCO1; 9.83
CC(C)C[C@@H](NC(=O)[C@@H](Cc1ccccc1)NC(=O)[C@H](N)Cc1ccccc1)C(=O)N[C@H](CCCCNC(C)C)C(=O)N1CCCN(C(=N)N)CC1; 10.41
CC(C)C[C@@H](NC(=O)[C@@H](Cc1ccccc1)NC(=O)[C@H](N)Cc1ccccc1)C(=O)N[C@H](CCCN)C(=O)N[C@H]1CN[C@H](C(=O)O)C1; 7.30
CC(C)C[C@@H](NC(=O)[C@@H](Cc1ccccc1)NC(=O)[C@H](N)Cc1ccccc1)C(=O)N[C@H](CCCCN)C(=O)NCc1cn2ccccc2n1; 9.45
CC(C)C[C@@H](NC(=O)[C@@H](Cc1ccccc1)NC(=O)[C@H](N)Cc1ccccc1)C(=O)N[C@H](CCCN)C(=O)NCCN1CCN(CC(=O)O)CC1; 9.39
CC(C)C[C@@H](NC(=O)[C@@H](Cc1ccccc1)NC(=O)[C@H](N)Cc1ccccc1)C(=O)N[C@H](CCCCN)C(=O)N1CCCN(C(=N)N)CC1; 10.55

I'm hoping you can list pEC50 for every molecule here, please.
1. CC(C)C[C@@H](NC(=O)[C@@H](Cc1ccccc1)NC(=O)[C@H](N)Cc1ccccc1)C(=O)N[C@H](CCCCN)C(=O)N1CCN(S(C)(=O)=O)CC1
2. CC(C)C[C@@H](NC(=O)[C@@H](Cc1ccccc1)NC(=O)[C@H](N)Cc1ccccc1)C(=O)N[C@H](CCCNC(C)C)C(=O)N1CCCNCC1
3. CC(C)C[C@@H](NC(=O)[C@@H](Cc1ccccc1)NC(=O)[C@H](N)Cc1ccccc1)C(=O)N[C@H](CCCCNC(C)C)C(=O)N1CCC(N)(C(=O)O)CC1
4. CC(C)C[C@@H](NC(=O)[C@@H](Cc1ccccc1)NC(=O)[C@H](N)Cc1ccccc1)C(=O)N[C@H](CCCN)C(=O)NCCCC[C@@H](NC(=O)[C@H](N)CCCN)C(=O)O
5. CC(C)C[C@@H](NC(=O)[C@@H](Cc1ccccc1)NC(=O)[C@H](N)Cc1ccccc1)C(=O)N[C@H](CCCN)C(=O)N1CCCNCC1
6. CC(C)C[C@@H](NC(=O)[C@@H](Cc1ccccc1)NC(=O)[C@H](N)Cc1ccccc1)C(=O)N[C@H](CCCCNC(=N)N)C(=O)N1CCCN(C(=N)N)CC1 [Compound (16)] (H-[dF][dF][dL][d(hArg)]-{Homopiperazine(4-amidino)})

Result:
1: 9.61; 2: 10.48; 3: 10.11; 4: 9.92; 5: 10.10; 6: 10.68

I'm hoping you can list pEC50 for every molecule here, please.
1. CC(C)C[C@@H](NC(=O)[C@@H](Cc1ccccc1)NC(=O)[C@H](N)Cc1ccccc1)C(=O)N[C@H](CCCNC(=N)N)C(=O)N1CCCN(C(=N)N)CC1 [Compound (24)] (H-[dF][dF][dL][dR]-{Homopiperazine(4-amidino)})
2. CNCCCC[C@@H](NC(=O)[C@@H](CC(C)C)NC(=O)[C@@H](Cc1ccccc1)NC(=O)[C@H](N)Cc1ccccc1)C(=O)N1CCC(N)(C(=O)O)CC1
3. CC(C)C[C@@H](NC(=O)[C@H](N)Cc1ccccc1)C(=O)N[C@H](CCCN)C(=O)N[C@@H](CCCCNC(=O)[C@@H](CCCN)NC(=O)[C@@H](CC(C)C)NC(=O)[C@@H](Cc1ccccc1)NC(=O)[C@H](N)Cc1ccccc1)C(=O)O
4. CC(C)C[C@@H](NC(=O)[C@@H](Cc1ccccc1)NC(=O)[C@H](N)Cc1ccccc1)C(=O)N[C@H](CCCCN)C(=O)N1CCC(n2cc(-c3ccccc3)[nH]c2=O)CC1

Result:
1: 10.44; 2: 10.28; 3: 9.62; 4: 9.89

----------
SYSTEM_UNDER_TEST: mouse kappa opioid receptor (mKOR) (Mus musculus, UniProt P33534)
Construct: Stimulation of Endogenous Mouse Kappa-Opioid Receptor in R1.G1 Cells; host or cells: R1.G1 mouse thymoma cells
ASSAY_COMMENT: cell-based
PARTICULARS: read-out: mKOR Efficacy(%)
Square brackets hold non-standard residues; d marks the D form. Peptide text beside a SMILES is read from it. * marks the point of attachment. Piperidin1yl(4-NH2,4-COOH) = NC1(C(=O)O)CCN(*)CC1; Homopiperazine(4-amidino) = N=C(N)N1CCCN(*)CC1; d(hArg) = N=C(N)NCCCC[C@@H](N)C(=O)O; dDab = NCC[C@@H](N)C(=O)O
Field: Emax. Provide a value for each of the molecules that follow.
Numbers only, in %.

CC(C)C[C@@H](NC(=O)[C@@H](Cc1ccccc1)NC(=O)[C@H](N)Cc1ccccc1)C(=O)N[C@H](CCCCN)C(=O)N1CCN(c2cnccn2)CC1; 85
CC(C)C[C@@H](NC(=O)[C@@H](Cc1ccccc1)NC(=O)[C@H](N)Cc1ccccc1)C(=O)N[C@H](CCCCNC(=N)N)C(=O)N1CCC(N)(C(=O)O)CC1 [Compound (8)] (H-[dF][dF][dL][d(hArg)]-{Piperidin1yl(4-NH2,4-COOH)}); 90

Let us examine a further case.
Problem: Query (molecule): CC(C)C[C@@H](NC(=O)[C@@H](Cc1ccccc1)NC(=O)[C@H](N)Cc1ccccc1)C(=O)N[C@H](CCN)C(=O)N1CCCN(C(=N)N)CC1 [Compound (22)] (H-[dF][dF][dL][dDab]-{Homopiperazine(4-amidino)}) ; field requested: Emax
Result: 103

----------
SYSTEM_UNDER_TEST: human kappa opioid receptor (hKOR) (Homo sapiens, UniProt P41145)
Sequence (P41145 whole entry): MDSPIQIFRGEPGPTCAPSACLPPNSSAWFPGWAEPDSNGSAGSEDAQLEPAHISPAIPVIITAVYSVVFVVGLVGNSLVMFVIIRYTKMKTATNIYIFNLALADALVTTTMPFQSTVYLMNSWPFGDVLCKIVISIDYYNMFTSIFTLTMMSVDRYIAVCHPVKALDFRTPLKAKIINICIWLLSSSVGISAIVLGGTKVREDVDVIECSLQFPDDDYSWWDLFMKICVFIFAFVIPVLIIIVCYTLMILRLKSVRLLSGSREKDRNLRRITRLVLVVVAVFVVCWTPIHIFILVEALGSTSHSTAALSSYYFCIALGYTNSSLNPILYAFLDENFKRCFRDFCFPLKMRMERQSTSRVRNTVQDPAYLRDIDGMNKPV
ASSAY_COMMENT: cell-based
Square brackets hold non-standard residues; d marks the D form. Peptide text beside a SMILES is read from it. * marks the point of attachment. Piperidinyl(4-(1-Pro-OH)) = O=C(O)[C@@H]1CCCN1C1CCN(*)CC1; Piperidin1yl(4-NH2,4-COOH) = NC1(C(=O)O)CCN(*)CC1; d(hArg) = N=C(N)NCCCC[C@@H](N)C(=O)O; dDab = NCC[C@@H](N)C(=O)O
EXPERIMENTAL_READOUT: pEC50
Give bare numbers, as −log10 of the molar value.

CC(C)C[C@@H](NC(=O)[C@@H](Cc1ccccc1)NC(=O)[C@H](N)Cc1ccccc1)C(=O)N[C@H](CCCN)C(=O)N1CCCN(C2=NCCN2)CC1; 9.89
CC(C)C[C@@H](NC(=O)[C@@H](Cc1ccccc1)NC(=O)[C@H](N)Cc1ccccc1)C(=O)N[C@H](CCCCN)C(=O)N1CCN(S(=O)(=O)c2ccccc2)CC1; 10.96
CC(C)C[C@@H](NC(=O)[C@@H](Cc1ccccc1)NC(=O)[C@H](N)Cc1ccccc1)C(=O)N[C@H](CCCCN)C(=O)N1CCS(=O)(=O)CC1; 10.51
CC(C)C[C@@H](NC(=O)[C@@H](Cc1ccccc1)NC(=O)[C@H](N)Cc1ccccc1)C(=O)N[C@H](CCCCN)C(=O)N1CCN(c2ccccn2)CC1; 11.23
CC(C)C[C@@H](NC(=O)[C@@H](Cc1ccccc1)NC(=O)[C@H](N)Cc1ccccc1)C(=O)N[C@H](CCN)C(=O)N1CCC(N2CCC[C@H]2C(=O)O)CC1 [Compound (12)] (H-[dF][dF][dL][dDab]-{Piperidinyl(4-(1-Pro-OH))}); 9.77
CC(C)C[C@@H](NC(=O)[C@@H](Cc1ccccc1)NC(=O)[C@H](N)Cc1ccccc1)C(=O)N[C@H](CCCN)C(=O)N1CCCN(C(=N)N)CC1; 9.82

I'm hoping you can list pEC50 for every molecule here, please.
1. CC(C)C[C@@H](NC(=O)[C@@H](Cc1ccccc1)NC(=O)[C@H](N)Cc1ccccc1)C(=O)N[C@H](CCCCN)C(=O)N1CCN(C(=O)c2ccccc2)CC1
2. CC(C)C[C@@H](NC(=O)[C@@H](Cc1ccccc1)NC(=O)[C@H](N)Cc1ccccc1)C(=O)N[C@H](CCCN)C(=O)N1CCCNCC1
3. CC(C)C[C@@H](NC(=O)[C@@H](Cc1ccccc1)NC(=O)[C@H](N)Cc1ccccc1)C(=O)N[C@H](CCCCNC(=N)N)C(=O)N1CCC(N)(C(=O)O)CC1 [Compound (8)] (H-[dF][dF][dL][d(hArg)]-{Piperidin1yl(4-NH2,4-COOH)})

Result:
1: 10.92; 2: 9.66; 3: 9.92
